I'd be grateful if you could share measured PI3KA_Act Ki for these entries.
# TARGET OR TEST SYSTEM: truncated PI3Kα (p110α/iSH2 p85α) (Homo sapiens (Human), UniProt P42336)
# Sequence (P42336 whole entry, the tested form may be a part): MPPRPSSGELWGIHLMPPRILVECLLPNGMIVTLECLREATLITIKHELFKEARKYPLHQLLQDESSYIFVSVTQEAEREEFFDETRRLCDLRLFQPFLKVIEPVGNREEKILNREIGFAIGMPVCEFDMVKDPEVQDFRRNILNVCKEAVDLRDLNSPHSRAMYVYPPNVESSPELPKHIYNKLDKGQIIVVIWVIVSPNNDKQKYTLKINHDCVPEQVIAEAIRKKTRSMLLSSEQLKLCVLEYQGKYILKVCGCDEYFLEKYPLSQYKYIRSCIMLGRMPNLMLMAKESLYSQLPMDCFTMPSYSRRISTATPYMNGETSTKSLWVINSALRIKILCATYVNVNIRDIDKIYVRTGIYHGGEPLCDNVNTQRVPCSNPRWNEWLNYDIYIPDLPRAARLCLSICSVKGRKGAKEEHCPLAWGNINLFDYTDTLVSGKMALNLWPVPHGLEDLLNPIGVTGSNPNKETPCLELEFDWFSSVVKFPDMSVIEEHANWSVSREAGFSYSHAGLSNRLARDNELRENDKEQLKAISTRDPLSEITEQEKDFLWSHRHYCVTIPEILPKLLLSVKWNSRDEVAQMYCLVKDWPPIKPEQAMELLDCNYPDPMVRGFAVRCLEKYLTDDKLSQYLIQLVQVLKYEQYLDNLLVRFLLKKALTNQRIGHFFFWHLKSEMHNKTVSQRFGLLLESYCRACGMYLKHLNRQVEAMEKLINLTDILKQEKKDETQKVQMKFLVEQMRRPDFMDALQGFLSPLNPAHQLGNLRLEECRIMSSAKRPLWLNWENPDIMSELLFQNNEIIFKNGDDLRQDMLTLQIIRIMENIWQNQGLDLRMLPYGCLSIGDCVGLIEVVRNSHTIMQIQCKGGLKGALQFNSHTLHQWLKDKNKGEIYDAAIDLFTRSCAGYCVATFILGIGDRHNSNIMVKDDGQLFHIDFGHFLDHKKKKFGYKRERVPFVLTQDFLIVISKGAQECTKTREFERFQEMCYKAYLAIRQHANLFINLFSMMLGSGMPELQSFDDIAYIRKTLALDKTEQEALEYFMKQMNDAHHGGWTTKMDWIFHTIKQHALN
# EXPERIMENTAL DETAILS: PI3KA_Act fluorescence polarization kinase assay (Ki)
# Type: biochemical
# CONDITION DESCRIPTION: 1 mM ATP

Worked cases, answers included:
| COMPOUND | PI3KA_Act Ki |
| --- | --- |
| C[C@]1(N2CCc3c(-c4cnc(N)nc4)nc(N4CCOCC4)nc32)CCN(C(=O)[C@H]2C[C@@H]2F)C1 | <0.018 nM |
| CN1CC[C@H]1C(=O)N1CC[C@](C)(N2CCc3c(-c4cnc(N)nc4)nc(N4CCOCC4)nc32)C1 | 0.049 nM |
| CC(C)(C)OC(=O)N1CCCC(C)(N2CCc3c(-c4cnc(N)nc4)nc(N4CCOCC4)nc32)C1 (racemic) | 0.220 nM |

If you can, please state the reported PI3KA_Act Ki value of Nc1ncc(-c2nc(N3CCOCC3)nc3c2CCN3[C@H]2CCC(F)(F)C2)cn1 (single isomer, unassigned) .
0.730 nM

----------
I'd be grateful if you could share measured PI3KA_Act Ki for these entries.
# TARGET OR TEST SYSTEM: truncated PI3Kα (p110α/iSH2 p85α) (Homo sapiens (Human), UniProt P42336)
# EXPERIMENTAL DETAILS: PI3KA_Act fluorescence polarization kinase assay (Ki)
# Format: biochemical
# CONDITION DESCRIPTION: 1 mM ATP
One number for each entry, in nM.

| COMPOUND | UNIT NAME | PI3KA_Act Ki |
| --- | --- | --- |
| CC(=O)N1CC[C@@](C)(N2CCc3c(-c4cnc(N)nc4)nc(N4CCOCC4)nc32)C1 [Example 211] | nM | 0.078 |
| C[C@H]1COCCN1c1nc(-c2cnc(N)nc2)c2c(n1)N(C1CN(S(=O)(=O)C3CC3)C1)CC2 | nM | 0.030 |
| CCOC(=O)N1CC[C@H](N2CCc3c(-c4cnc(N)nc4)nc(N4CCOC[C@@H]4C)nc32)C1 | nM | 0.087 |
| C[C@]1(N2CCc3c(-c4cnc(N)nc4)nc(N4CCOCC4)nc32)CCNC1.Cl | nM | 0.160 |

Below is a list of compounds. For each, state its recorded PI3KA_Act Ki.
1. C[C@H]1COCCN1c1nc(-c2cnc(N)nc2)c2c(n1)N([C@@]1(C)CCN(C(=O)[C@H](N)C3CC3)C1)CC2.Cl
2. COC(=O)N1CC[C@@](C)(N2CCc3c(-c4cnc(N)nc4)nc(N4CCOCC4)nc32)C1
3. CC(C)(C)OC(=O)N1C[C@@H](F)[C@@H](N2CCc3c(-c4cnc(N)nc4)nc(N4CCOCC4)nc32)C1
4. C[C@@]1(N2CCc3c(-c4cnc(N)nc4)nc(N4CCOCC4)nc32)CCN(C(=O)C2CCC2)C1
5. C[C@H]1COCCN1c1nc(-c2cnc(N)nc2)c2c(n1)N(C1CN(S(=O)(=O)C3CNC3)C1)CC2
6. CC1(N2CCc3c(-c4cnc(N)nc4)nc(N4CCOCC4)nc32)CN(S(C)(=O)=O)C1
7. C[C@H]1COCCN1c1nc(-c2cnc(N)nc2)c2c(n1)N([C@@]1(C)CCN(C(=O)[C@H](N)C(F)(F)F)C1)CC2.Cl

0.022
0.128
0.168
0.141
0.101
0.045
0.050

Below is a list of compounds. For each, state its recorded PI3KA_Act Ki.
1. C[C@@]1(N2CCc3c(-c4cnc(N)nc4)nc(N4CCOCC4)nc32)CCN(C(=O)N2CC(C#N)C2)C1
2. C[C@H]1COCCN1c1nc(-c2cnc(N)nc2)c2c(n1)N(C1CN(S(C)(=O)=O)C1)CC2
3. C[C@H]1COCCN1c1nc(-c2cnc(N)nc2)c2c(n1)N([C@H]1CCN(C(=O)NC(C)(C)C)C1)CC2
4. C[C@@]1(N2CCc3c(-c4cnc(N)nc4)nc(N4CCOCC4)nc32)CCN(CC(N)=O)C1
5. Cn1cc(S(=O)(=O)N2CC(N3CCc4c(-c5cnc(N)nc5)nc(N5CCOCC5)nc43)C2)cn1
6. CN(CC(C)(C)N1CCc2c(-c3cnc(N)nc3)nc(N3CCOCC3)nc21)S(C)(=O)=O
7. CC(C)(N)C(=O)N1CC(C)(N2CCc3c(-c4cnc(N)nc4)nc(N4CCOCC4)nc32)C1

0.262
0.289
0.318
0.411
0.125
0.191
0.165

Below is a list of compounds. For each, state its recorded PI3KA_Act Ki.
1. C[C@H]1COCCN1c1nc(-c2cnc(N)nc2)c2c(n1)N([C@H]1C[C@H](NC(=O)OC(C)(C)C)C1)CC2
2. C[C@@]1(N2CCc3c(-c4cnc(N)nc4)nc(N4CCOCC4)nc32)CCN(C(=O)C(O)C2CC2)C1 (single isomer, unassigned) [Example 327]

0.433
0.028

----------
I'd be grateful if you could share measured PI3KA_FL Ki for these entries.
# TARGET OR TEST SYSTEM: full-length PI3Kα (full-length p110α/p85α) (Homo sapiens (Human))
# Sequence (P42336 whole entry): as the sequence (P42336 whole entry, the tested form may be a part) above
# Sequence (P27986 whole entry partner): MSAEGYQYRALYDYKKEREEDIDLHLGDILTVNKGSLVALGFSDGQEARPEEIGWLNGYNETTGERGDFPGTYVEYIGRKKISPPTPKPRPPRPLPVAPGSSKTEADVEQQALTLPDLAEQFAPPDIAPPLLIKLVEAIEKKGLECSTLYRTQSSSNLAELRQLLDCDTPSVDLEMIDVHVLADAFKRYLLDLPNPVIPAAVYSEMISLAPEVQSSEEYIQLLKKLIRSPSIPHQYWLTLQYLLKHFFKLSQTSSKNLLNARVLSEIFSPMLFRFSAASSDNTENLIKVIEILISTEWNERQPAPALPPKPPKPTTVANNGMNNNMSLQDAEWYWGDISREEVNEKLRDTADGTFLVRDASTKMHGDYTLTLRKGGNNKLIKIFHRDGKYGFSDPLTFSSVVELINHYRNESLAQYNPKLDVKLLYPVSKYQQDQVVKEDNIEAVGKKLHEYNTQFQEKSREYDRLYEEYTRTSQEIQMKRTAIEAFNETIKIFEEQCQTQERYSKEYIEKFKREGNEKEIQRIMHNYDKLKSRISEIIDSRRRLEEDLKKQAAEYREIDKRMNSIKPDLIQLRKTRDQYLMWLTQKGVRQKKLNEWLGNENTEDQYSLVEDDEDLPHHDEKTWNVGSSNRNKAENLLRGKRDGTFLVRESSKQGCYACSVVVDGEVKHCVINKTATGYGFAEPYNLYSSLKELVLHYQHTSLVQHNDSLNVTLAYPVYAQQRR
# EXPERIMENTAL DETAILS: PI3KA_FL fluorescence polarization kinase assay (Ki)
# Format: biochemical
# CONDITION DESCRIPTION: 41 μM ATP
Answers are plain numbers, in nM.

Worked cases, answers included:
| MOLECULE | PI3KA_FL Ki, nM |
| --- | --- |
| CC(C)(C)NC(=O)N1CC[C@@H](N2CCc3c(-c4cnc(N)nc4)nc(N4CCOCC4)nc32)C1 [Example 135] | 5.159 |
| Nc1ncc(-c2nc(N3CCOCC3)nc3c2CCN3[C@H]2CCNC(=O)C2)cn1 [Example 78] | 14.681 |
| CC(=O)N[C@H]1C[C@H](N2CCc3c(-c4cnc(N)nc4)nc(N4CCOCC4)nc32)C1 [Example 29] | 5.828 |
| C[C@H]1COCCN1c1nc(-c2cnc(N)nc2)c2c(n1)N([C@@H]1CCN(S(C)(=O)=O)C1)CC2 [Example 83] | 0.761 |
| CC(=O)N1CC[C@@H](N2CCc3c(-c4cnc(N)nc4)nc(N4CCOCC4)nc32)C1 [Example 11] | 4.095 |
| CO[C@@H]1CN(S(C)(=O)=O)C[C@H]1N1CCc2c(-c3cnc(N)nc3)nc(N3CCOC[C@@H]3C)nc21 [Example 103] | 0.557 |

Field: next molecule
If you can, please state the reported PI3KA_FL Ki value of CC(=O)N1CCC[C@@H](N2CCc3c(-c4cnc(N)nc4)nc(N4CCOCC4)nc32)C1 [Example 55] .
3.904

----------
I'd be grateful if you could share measured PI3KA_Act Ki for these entries.
# TARGET OR TEST SYSTEM: truncated PI3Kα (p110α/iSH2 p85α) (Homo sapiens (Human), UniProt P42336)
# EXPERIMENTAL DETAILS: PI3KA_Act fluorescence polarization kinase assay (Ki)
# Type: biochemical
# CONDITION DESCRIPTION: 1 mM ATP
Give bare numbers, in nM.

| COMPOUND | PI3KA_Act Ki (nM) |
| --- | --- |
| CC(C)C(=O)NCC(=O)N1CC(N2CCc3c(-c4cnc(N)nc4)nc(N4CCOCC4)nc32)C1 [Example 218] | 0.751 |
| C[C@]1(N2CCc3c(-c4cnc(N)nc4)nc(N4CCOCC4)nc32)CCN(C(=O)[C@H]2CCC(=O)N2)C1 [Example 379] | 0.061 |
| C[C@H]1COCCN1c1nc(-c2cnc(N)nc2)c2c(n1)N(C1CN(S(=O)(=O)c3cnn(C)c3)C1)CC2 [Example 160] | 0.221 |

Below is a list of compounds. For each, state its recorded PI3KA_Act Ki.
1. CC(C)(O)C(=O)N1CC(N2CCc3c(-c4cnc(N)nc4)nc(N4CCOCC4)nc32)C1 [Example 241]
2. CCOC(=O)N1CC[C@@](C)(N2CCc3c(-c4cnc(N)nc4)nc(N4CCOCC4)nc32)C1 [Example 404]
3. C[C@]1(N2CCc3c(-c4cnc(N)nc4)nc(N4CCOCC4)nc32)CCN(C(=O)[C@@]2(C)CCN2)C1 [Example 351]

[1.174, 0.128, 0.059]

----------
I'd be grateful if you could share measured PI3KA_Act Ki for these entries.
# TARGET OR TEST SYSTEM: truncated PI3Kα (p110α/iSH2 p85α) (Homo sapiens (Human))
# EXPERIMENTAL DETAILS: PI3KA_Act fluorescence polarization kinase assay (Ki)
# Format: biochemical
# CONDITION DESCRIPTION: 1 mM ATP

Worked cases, answers included:
| MOLECULE | TARGET OR TEST SYSTEM | PI3KA_Act Ki |
| --- | --- | --- |
| Cn1nccc1C(=O)N1CC[C@](C)(N2CCc3c(-c4cnc(N)nc4)nc(N4CCOCC4)nc32)C1 | truncated PI3Kα (p110α/iSH2 p85α) (Homo sapiens (Human)) | <0.018 nM |
| C[C@]1(N2CCc3c(-c4cnc(N)nc4)nc(N4CCOCC4)nc32)CCN(C(=O)[C@@H]2CCC(=O)N2)C1 | truncated PI3Kα (p110α/iSH2 p85α) (Homo sapiens (Human)) | 0.082 nM |
| CCS(=O)(=O)N1CC(N2CCc3c(-c4cnc(N)nc4)nc(N4CCOCC4)nc32)C1 | truncated PI3Kα (p110α/iSH2 p85α) (Homo sapiens (Human)) | 0.122 nM |
| C[C@]1(N2CCc3c(-c4cnc(N)nc4)nc(N4CCOCC4)nc32)CCN(C(=O)[C@@H](N)CF)C1.Cl | truncated PI3Kα (p110α/iSH2 p85α) (Homo sapiens (Human)) | 0.086 nM |
| CC(C(N)=O)C(=O)N1CC[C@](C)(N2CCc3c(-c4cnc(N)nc4)nc(N4CCOCC4)nc32)C1 (stereo partly drawn) [Example 315] | truncated PI3Kα (p110α/iSH2 p85α) (Homo sapiens (Human)) | <0.018 nM |
| CN1CC[C@@H](OC(=O)N2CC[C@](C)(N3CCc4c(-c5cnc(N)nc5)nc(N5CCOCC5)nc43)C2)C1 | truncated PI3Kα (p110α/iSH2 p85α) (Homo sapiens (Human)) | <0.018 nM |
| C[C@H]1COCCN1c1nc(-c2cnc(N)nc2)c2c(n1)N([C@@]1(C)CCN(C3CCNC3=O)C1)CC2 (single isomer, unassigned) [Example 514] | truncated PI3Kα (p110α/iSH2 p85α) (Homo sapiens (Human)) | 0.068 nM |
| C[C@H]1COCCN1c1nc(-c2cnc(N)nc2)c2c(n1)N([C@H]1CCN(S(=O)(=O)C3CC3)C1)CC2 | truncated PI3Kα (p110α/iSH2 p85α) (Homo sapiens (Human)) | 0.056 nM |

Below is a list of molecules. For each, state its recorded PI3KA_Act Ki.
1. C[C@]1(N2CCc3c(-c4cnc(N)nc4)nc(N4CCOCC4)nc32)CCN(C(=O)[C@H]2C[C@H]2F)C1
2. CNS(=O)(=O)N1CC[C@H](N2CCc3c(-c4cnc(N)nc4)nc(N4CCOCC4)nc32)C1
3. C[C@H]1COCCN1c1nc(-c2cnc(N)nc2)c2c(n1)N([C@@]1(C)CCN(C(=O)[C@@]3(C)CCN3)C1)CC2.Cl
4. CNC(=N)N1CC[C@](C)(N2CCc3c(-c4cnc(N)nc4)nc(N4CCOCC4)nc32)C1

1. <0.018 nM
2. 0.124 nM
3. 0.046 nM
4. 0.101 nM
